Provenance of the data: patent US8134015B2

assayed system: rat NaPi-2b (Rattus norvegicus, UniProt Q9JJ09)
Sequence (Q9JJ09 whole entry): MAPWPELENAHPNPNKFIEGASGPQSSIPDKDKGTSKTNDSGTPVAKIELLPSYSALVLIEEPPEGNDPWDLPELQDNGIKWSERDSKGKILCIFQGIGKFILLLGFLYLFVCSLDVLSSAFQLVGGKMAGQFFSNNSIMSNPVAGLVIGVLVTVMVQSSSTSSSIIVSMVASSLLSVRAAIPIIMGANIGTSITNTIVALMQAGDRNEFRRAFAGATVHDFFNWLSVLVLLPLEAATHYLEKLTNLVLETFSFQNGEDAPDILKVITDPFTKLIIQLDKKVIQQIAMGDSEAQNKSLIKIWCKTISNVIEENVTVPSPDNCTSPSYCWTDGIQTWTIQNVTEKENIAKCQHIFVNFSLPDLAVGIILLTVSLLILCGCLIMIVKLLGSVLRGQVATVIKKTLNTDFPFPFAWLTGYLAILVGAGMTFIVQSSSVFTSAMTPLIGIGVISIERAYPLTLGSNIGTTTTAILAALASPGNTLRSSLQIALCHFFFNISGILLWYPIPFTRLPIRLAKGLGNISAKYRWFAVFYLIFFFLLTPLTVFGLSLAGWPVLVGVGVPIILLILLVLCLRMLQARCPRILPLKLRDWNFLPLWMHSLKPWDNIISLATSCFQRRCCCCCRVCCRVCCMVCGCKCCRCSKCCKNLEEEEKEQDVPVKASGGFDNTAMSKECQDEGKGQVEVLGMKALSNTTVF
experiment description: Sodium-dependent phosphate uptake of Xenopus oocytes which expressed NaPi-2b (32P)
condition context: Xenopus oocytes expressing rat NaPi-2b, 32P radioactive phosphorus; read-out: IC50 (phosphate uptake inhibitory activity)
Description: Pharmacological Test Example 1 Experiment of Sodium-Dependent Phosphate Uptake of Xenopus oocytes which Expressed NaPi-2b Degenerate primers were prepared from sequences of mouse NaPi-2b disclosed in Hilfiker H. et al., Pro Natl Acad Sci USA, 95 (24): 14564-14569, […] and sequences of human and rat NaPi-2a disclosed in Magagnin S. et al., Proc Natl Aca Sci USA, 90 (13): 5979-5983, 1993. RNA was extracted from the rat small intestine using ISOGEN; manufactured by NIPPON GENE CO., LTD (Japan). […]
pIC50: −log10 of the molar value. Structures can show the parent of a compound that is named as a salt.
quantity kind: pIC50

Some entries whose results are on file:
# compound, pIC50
measured = [
    ("COc1ccc(C(=O)Nc2ccc(N3CCOCC3)cc2C(=O)N/N=C/c2ccc(C)c(C)c2)cc1OC", "> 5.52"),
    ("Cc1ccc(/C=N/NC(=O)c2cc(Cl)ccc2NC(=O)c2ccc(CN(C)CCO)cc2)cc1", "> 5.52"),
    ("Cc1ccc(/C=N/NC(=O)c2c(C)csc2NC(=O)c2cccc(CN3CCC(N4CCCCC4)CC3)c2)cc1C", "> 5.52"),
    ("CCN(CC)CCN(C)Cc1cccc(C(=O)Nc2sc3c(c2C(=O)N/N=C/c2ccc(OC(F)(F)F)cc2)CCCC3)c1", "> 5.52"),
    ("O=C(Nc1ccc(Br)cc1C(=O)N/N=C/c1ccc(Cl)c(C(F)(F)F)c1)c1ccc(CSc2ccncc2)cc1", "> 5.52"),
]

Note to self: pIC50 recorded for CC(O)CN(Cc1cccc(C(=O)Nc2ccc(F)cc2C(=O)Nc2ccc(F)cc2C(=O)N/N=C/c2cccc(F)c2)c1)CC(C)O (stereo not shown) was 5.41

Lab book: pIC50 of Cc1ccc(/C=N/NC(=O)c2ccccc2NC(=O)c2ccncc2)cc1 [Compound 203, hydrochloride] noted as > 5.52
